target: Human CD38 (human, UniProt P28907 43-300); assay: SPR (Biacore), antibody from supernatant captured on Protein A, human CD38 injected, 1:1 fit
pKd: −log10 of the molar value.
Label rule met when pKd >= 10; otherwise rule not met.

Q. Could you please find out whether X02.104 (antibody, V domains shown, IgG4 S228P with the X02.1 VH; VL T90I relative to A02.1) VH: QLQLQESGPGLVKPSETLSLTCTVSGGSISSSSYYWSWIRQHPGKGLEWIGYIYYSGSTNYNPSLKSRVTISVDTLKNQISLRLTSVTAADTAVYYCARVGGAGGWPMDVWGQGTTVTVSS VL: QAVLTQPASLSASPGESARLTCTLPSDINVRYYNIYWYQQKPGSPPRYLLYYYSDSHKGQGSGVPSRFSGSKDVSTNSGILLISGLQSEDEADYYCMIWSSNGSGVFGGGTQLTVLG has pKd that meets 10 or exceeds it?
A. rule not met

Q. Is the recorded value of pKd equal to or greater than 10 for this binder? X02.99 (antibody, V domains shown, IgG4 S228P with the X02.1 VH; VL Y30S relative to A02.1) VH: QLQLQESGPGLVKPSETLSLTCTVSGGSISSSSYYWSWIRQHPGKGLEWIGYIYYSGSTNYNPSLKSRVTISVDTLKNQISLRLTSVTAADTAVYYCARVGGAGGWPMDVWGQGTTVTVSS VL: QAVLTQPASLSASPGESARLTCTLPSDINVRSYNIYWYQQKPGSPPRYLLYYYSDSHKGQGSGVPSRFSGSKDVSTNSGILLISGLQSEDEADYYCMTWSSNGSGVFGGGTQLTVLG
A. rule met

Q. Hi, just wondering whether X02.103 (antibody, V domains shown, IgG4 S228P with the X02.1 VH; VL S70T relative to A02.1) VH: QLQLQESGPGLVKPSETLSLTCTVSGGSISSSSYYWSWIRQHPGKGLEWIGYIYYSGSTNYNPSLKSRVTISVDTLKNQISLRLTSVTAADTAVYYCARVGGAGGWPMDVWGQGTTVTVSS VL: QAVLTQPASLSASPGESARLTCTLPSDINVRYYNIYWYQQKPGSPPRYLLYYYSDSHKGQGSGVPSRFSGSKDVSTNTGILLISGLQSEDEADYYCMTWSSNGSGVFGGGTQLTVLG shows pKd of 10 or higher.
A. rule not met

Q. Determine whether this binder has pKd no lower than 10: X02.100 (antibody, V domains shown, IgG4 S228P with the X02.1 VH; VL H(54A)D relative to A02.1) VH: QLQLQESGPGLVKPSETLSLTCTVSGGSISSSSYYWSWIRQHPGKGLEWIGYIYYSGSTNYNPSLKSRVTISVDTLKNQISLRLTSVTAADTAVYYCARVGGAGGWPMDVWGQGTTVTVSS VL: QAVLTQPASLSASPGESARLTCTLPSDINVRYYNIYWYQQKPGSPPRYLLYYYSDSDKGQGSGVPSRFSGSKDVSTNSGILLISGLQSEDEADYYCMTWSSNGSGVFGGGTQLTVLG
A. rule not met

Q. Can X02.98 (antibody, V domains shown, IgG4 S228P with the X02.1 VH; VL R29S relative to A02.1) VH: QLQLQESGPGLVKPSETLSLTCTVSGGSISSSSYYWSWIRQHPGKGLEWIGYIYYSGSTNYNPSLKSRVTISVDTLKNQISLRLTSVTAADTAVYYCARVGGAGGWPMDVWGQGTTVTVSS VL: QAVLTQPASLSASPGESARLTCTLPSDINVGYYNIYWYQQKPGSPPRYLLYYYSDSHKGQGSGVPSRFSGSKDVSTNSGILLISGLQSEDEADYYCMTWSSNGSGVFGGGTQLTVLG be said to have pKd at or above 10?
A. rule met
